assay: binders of probe aHhip on microarray, primary screen, stem cell growth factor project, biochemical, small-molecule microarray, fluorescence 635/667 (AID 1087); conditions: higher = more signal;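 also: score merges spot fluorescence at 667nm with spot signal to noise ratio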
readout-kind: composite z-score
One number for each entry.

# annotated cases, reported composite z-score shown
C=CCNC(=O)[C@@H]1[C@H]2C(=O)O[C@H](c3ccccc3)[C@H](c3ccccc3)N2[C@H](c2ccccc2OCCO)[C@@]12C(=O)N(C(=O)OCCOC)c1ccc(C#CCNC(N)=O)cc12 : 0.251
COC(=O)[C@@]1(Cc2ccc(OC)cc2)[C@H]2c3cc(C(=O)N4CCCC4)n(Cc4ccc(OC)c(OC)c4)c3C[C@H]2CN1C(=O)c1ccccc1 : 0.319
CCN(CC)c1ccc(N2CC=CC34O[C@@H]5/C=C\CCC(C)OC(=O)C5[C@H]3C(=O)N(C(CO)C(C)C)[C@@H]4C2=O)cc1 (stereo partly specified) : 1.01
CC(C)(C)OC(=O)CC[C@@]1(C(=O)NCC(O)CO)N=C(c2ccc(OCCCO)cc2)O[C@@H]1c1ccccc1N=[N+]=[N-] (stereo partly specified) : -0.0618
C[N+](C)(C)CCCCNC(=O)[C@H]1C[C@H]2C(=O)N[C@@H](Cc3ccccc3)C(=O)N2[C@H]1c1ccc(O)cc1 : -0.0645

Continue with the next molecule.
Any idea what composite z-score was measured for `COC(=O)c1c(CC[C@@H](CO)NC(=O)N[C@H](Cn2cc(Cc3ccccc3)nn2)C(C)C)oc(C(C)=O)c1C(=O)OC` ?
-0.236
